Test system: ONS
Test: Anti-parkinson's disease activity in human ONS cells assessed as early endosome marker intensity in outer region of cytoplasm at 5 uM by heat map analysis
Assay type: functional, subcellular
Active and inactive are the calls of the source. The calls are words filed in the database; no cut-off is given here.
Reply using exactly one outcome from 1.0 (active), 0.0 (inactive)

**Query** What outcome does the record of this test show for `C=CCc1cc2c(cc1OC)OCO2` ?
**Result** 1.0

**Query** What outcome does the record of this test show for `C=CCc1cc(OC)c(O)c(OC)c1` ?
**Result** 1.0

**Query** What outcome does the record of this test show for `C/C=C\CC/C=C/C=C/C(=O)NCC(C)C` ?
**Result** 1.0

**Query** What outcome does the record of this test show for `c1cc2c(cc1[C@H]1OC[C@H]3[C@@H]1CO[C@@H]3c1ccc3c(c1)OCO3)OCO2` ?
**Result** 0.0

**Query** What outcome does the record of this test show for `CCC(=O)c1cc2c(cc1OC)OCO2` ?
**Result** 0.0

**Query** What outcome does the record of this test show for `C=CCc1cc(OC)c(OC)c(OC)c1` ?
**Result** 1.0

**Query** What outcome does the record of this test show for `CCC(=O)c1cc2c(cc1O)OCO2` ?
**Result** 0.0

**Query** What outcome does the record of this test show for `c1cc2c(cc1[C@H]1OC[C@H]3[C@@H]1CO[C@H]3c1ccc3c(c1)OCO3)OCO2` ?
**Result** 1.0

**Query** What outcome does the record of this test show for `C/C=C\C=C/CC/C=C/C=C/C(=O)NCC(C)C` ?
**Result** 1.0

**Query** What outcome does the record of this test show for `CCC(=O)c1cc(OC)c(O)cc1O` ?
**Result** 1.0

**Query** What outcome does the record of this test show for `COc1cc(C(=O)O)ccc1O` ?
**Result** 1.0

Values compiled from ChEMBL document CHEMBL5365402.
